B1: library; a variant is named by its letters at N, in order (parent)
chain: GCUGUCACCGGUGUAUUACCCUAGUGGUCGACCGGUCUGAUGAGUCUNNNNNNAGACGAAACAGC

- Variants of: B1
- test protocol: FACS-Seq fitted mean relative fluorescence mCherry/BFP without ligand (log10 relative fluorescence); ligand: hypoxanthine (xanthine aptamer); higher = higher reporter protein expression
- condition summary: HEK293T, ligand present: no
test readout: FACS-Seq fitted mean (log10)

[
  {
    "residue change": "GCGUGU",
    "value": 0.0904
  },
  {
    "residue change": "AGGAAC",
    "value": 0.573
  },
  {
    "residue change": "ACUAUA",
    "value": 0.701
  },
  {
    "residue change": "GCAAGA",
    "value": 0.209
  },
  {
    "residue change": "CGGUAG",
    "value": 0.498
  },
  {
    "residue change": "UGCAGA",
    "value": 0.169
  }
]

Endpoint output: FACS-Seq fitted mean (log10) of `ACGCUG` . Value? 0.109

Sample `UACCGU` — what was its FACS-Seq fitted mean (log10)? 0.0177

Param item = `AGACUU` ; retrieve measured FACS-Seq fitted mean (log10). 0.58

# lookup: FACS-Seq fitted mean (log10) of `CAUUUA` -0.0161

Would you mind telling me what FACS-Seq fitted mean (log10) value was observed for `GGGUAC` ? 0.159

Would you mind telling me what FACS-Seq fitted mean (log10) value was observed for `AAAAGG` ? 0.163
